- System: MDA-MB-435
Labels: active, inactive

- Cn1cc(C2=C(c3c(S(C)=O)n(C)c4ccccc34)C(=O)NC2=O)c2ccccc21 (centres undefined): inactive
- Oc1cccc(-c2nc(-c3ccccc3)[nH]c2-c2ccncc2)c1: inactive
- COc1ccc(/C=C2/CN(CCC#N)C/C(=C\c3ccc(OC)cc3)C2=O)cc1: inactive
- CC[C@@]1(O)C(=O)NCc2c1cc1n(c2=O)Cc2cc3c(NC(C)=O)cccc3nc2-1: inactive
- O=C(Nc1ccccc1)Nc1ccc(Cl)c(Cl)c1: inactive
- N[C@@H](CSSC[C@H](N)C(=O)N1CCn2cc(-c3ccccc3)nc2[C@@H]1CC1CCCCC1)C(=O)N1CCn2cc(-c3ccccc3)nc2[C@@H]1CC1CCCCC1: active
- COc1ccc(-c2nc3sccn3c2-c2ccnc(NCCCNS(=O)(=O)c3ccc(F)cc3)n2)cc1: inactive
- COc1ccc2c(c1)N(CCO)C1=C(C(=O)OC1)C2c1ccc(OC)c(OC)c1 (centres undefined): active
- N=C1/C(=C2\Nc3ccccc3S2)CC(=O)N1c1ccc(SC(F)F)cc1: inactive
- Fc1ccc(-c2c(-c3ccncc3)[nH]c3nccnc23)cc1: inactive
- COc1cc(Cn2c(SCC(=O)Nc3ccc(Cl)cc3)nc3ccccc3c2=O)cc(OC)c1OC: inactive
- COc1c2ccccc2c(O)c2c(=O)ccn(C)c12: inactive
- COc1ccc2nc3cc(Cl)ccc3c(Nc3cc(C(C)C)c(O)cc3C)c2c1: inactive
- OCc1ccc(N(Cc2ccc(F)cc2)CC2CCC2)cc1Cl: inactive

----------
Measured GI50, listed per entry for reference.
- System: SNB-19 CNS
- Protocol: NCI tumour cell line growth inhibition, 48 h
Metric: GI50

• CCOC(=O)c1cc(-c2ccccc2)[nH]c1N/N=C/c1c(Cl)cccc1Cl = 3.06 µM
• CCCc1n(Cc2ccc3ccccc3n2)cc[n+]1Cc1ccc2ccccc2n1 = 1.13 µM
• Cc1cc(N)cc(C)c1-c1c(Br)cc(N)cc1Br = 5.3 µM
• Cn1cc(C2=C(c3c(S(C)=O)n(C)c4ccccc34)C(=O)NC2=O)c2ccccc21 (stereo not given) = 25 µM
• COc1ccc2c(c1)N(CCO)C1=C(C(=O)OC1)C2c1ccc(OC)c(OC)c1 (stereo not given) = 4.54 µM
• O=C1/C(=C/c2ccccc2[N+](=O)[O-])COc2ccc(O)c(O)c21 = 2.45 µM
• O=C(O)c1cn(C2CC2)c2cc(N3CCN(Cc4ccc5ccccc5c4O)CC3)c(F)cc2c1=O = 29.8 µM
• COC1=CC2CCN3Cc4cc5c(cc4C(C1O)C23)OCC5 (stereo not given) = 0.992 µM
• CNCCN(C)Cc1cn[nH]c1-c1ccc(OC2CC(OCCC3CCOCC3)C2)cc1 (stereo not given) = > 100 µM
• FC(F)(F)c1ccc(NCc2nc3ccccc3[nH]2)cc1 = 34.3 µM

----------
- Tested on: HCC-2998 colon
- Protocol: NCI tumour cell line growth inhibition, 48 h
Measured TGI, listed per entry for reference.
Metric: TGI

• CSc1nc(Br)nc2ncn(C3CC(Oc4ccc(C)cc4)C(COc4ccc(C)cc4)O3)c12 (stereo not given) = > 100 µM
• CC(=O)OCC1OC(Oc2cc(C)c(O)cc2C/C=C(\C)CC/C=C(\C)C[C@@H](C=C(C)C)OC(C)=O)C(O)C(OC(C)=O)C1OC(C)=O (stereo not given in full) = 41.2 µM
• N#CC1=C(N)OC(c2cccc([N+](=O)[O-])c2)C1(C#N)C#N (stereo not given) = 35.2 µM
• CCOC(=O)c1c2ccc(/C=C/c3ccccc3)ccc-2c(C(=O)OCC)c1N = > 100 µM
• CNCCN(C)Cc1cn[nH]c1-c1ccc(OC2CC(OCCC3CCOCC3)C2)cc1 (stereo not given) = > 100 µM

----------
- Tested on: NCI-H460 lung
- Protocol: NCI tumour cell line growth inhibition, 48 h
Measured TGI, listed per entry for reference.
Metric: TGI (µM)

* O=C1/C(=C/c2ccccc2[N+](=O)[O-])COc2ccc(O)c(O)c21 | 4.94
* Cc1cc(C#Cc2ccccc2)ccc1-n1c(/C=C/c2cc(O)ccc2O)nc2ccccc2c1=O | 2.91
* CC(C)[C@H](C(=O)O[C@@H]1/C=C/C(=O)O[C@@H](C)CCC/C=C/[C@@H]2C[C@H](O)C[C@H]21)N(C)C | 82.5
* COC(=O)[C@]12CC[C@@H](C)[C@H](C)[C@@H]1C1=CC[C@@H]3[C@@]4(C)CC(=O)[C@H](O)[C@@](C)(CO)[C@@H]4C(=O)C[C@@]3(C)[C@]1(C)CC2 | 22.6
* OCCCCCCCCCCCOc1ccc(C2OCC3(CC=CCC3)CO2)cc1 (stereo not given) | 36.5

----------
- Tested on: SF-295 CNS
- Protocol: NCI tumour cell line growth inhibition, 48 h
Where a SMILES comes first, the peptide text is derived from it. [ ]: non-standard residue; d: D form. The star is where a group is joined. Phe(4-NO2) = N[CH](Cc1ccc([N+](=O)[O-])cc1)C(=O)O; Boc = CC(C)(C)OC(=O)*
Measured TGI, listed per entry for reference.
Metric: TGI

• Fc1ccc(-c2c(-c3ccncc3)[nH]c3nccnc23)cc1 = > 25 µM
• O=c1c2n[nH]nc2nc2n1CC(c1ccccc1)S2 (stereo not given) = > 100 µM
• CSc1nc(Br)nc2ncn(C3CC(Oc4ccc(C)cc4)C(COc4ccc(C)cc4)O3)c12 (stereo not given) = > 100 µM
• C=C(C)CC(C)(c1cc2ccccc2n1C)N1CCOCC1 (stereo not given) = > 100 µM
• ClCCCCOC1CCCCO1 (stereo not given) = > 100 µM
• COC(=O)CCC(NC(=O)OC(C)(C)C)C(=O)NC(Cc1ccc([N+](=O)[O-])cc1)C(=O)NC(CCC(=O)OC)C(=O)OC (stereo not given) (Boc-Glu(OMe)-[Phe(4-NO2)]-Glu(OMe)-OMe; configuration not given here) = > 100 µM
• CC(C)COC(c1ccc2c(c1)OCO2)C(C)Br (stereo not given) = 53.6 µM
• C=C1C(=O)C2(C)OC2(C)C1C(=O)O (stereo not given) = > 100 µM
• NC(=O)c1ncn(Cc2ccccc2)c1CNC(N)=S = > 100 µM
• Oc1ccc(-c2nc3cc(F)ccc3s2)cc1 = 48.6 µM

----------
Measured TGI, listed per entry for reference.
- System: HT29 colon
- Protocol: NCI tumour cell line growth inhibition, 48 h
Where a SMILES comes first, the peptide text is derived from it. [ ]: non-standard residue; d: D form. Hiv = CC(C)[C@H](O)C(=O)O
Metric: TGI

* CC(C)(C)OC(=O)NC(CS(=O)(=O)O)C(=O)O (stereo not given) | > 100 µM
* CC(C)[C@@H]1OC(=O)[C@@H](C)NC(=O)[C@@H]2CCCN2C1=O (cyclo([Hiv]-Pro-[dA])) | > 100 µM
* CCCc1n(Cc2ccc3ccccc3n2)cc[n+]1Cc1ccc2ccccc2n1 | 11.4 µM
* C#Cc1ccc(-n2c(/C=C/c3ccc4ccccc4c3)nc3ncccc3c2=O)cc1 | > 100 µM
* Cc1cc2cc3ccccc3cc2c(=O)[nH]1 | > 10 µM

----------
- Test system: HOP-92 NSCLC
- Protocol: NCI tumour cell line growth inhibition, 48 h
Measured GI50, listed per entry for reference.
Metric: GI50

* N=C1C(c2nc3ccccc3s2)=C(O)CN1c1cc(Cl)cc(Cl)c1 | 59300 nM
* Oc1cccc(-c2nc(-c3ccccc3)[nH]c2-c2ccncc2)c1 | 5980 nM
* N#Cc1c(N)c(C#N)c2c(c1-c1ccc(Cl)cc1)COc1ccc(F)cc1-2 | > 50000 nM
* CC1(O)COCCCCOc2c(CN)cccc2NC(=O)c2nc(cnc2N)-c2ccc(cc2)S(=O)(=O)C(C)(C)C1 (stereo not given) | 1310 nM
* COc1cc(-c2nn(-c3cccc(NC(=O)CCN4CCN(C)CC4)c3)cc2-c2ccncc2)ccc1Cl | 675 nM
* COc1cc(NC(C)CCCN2C(=O)c3ccccc3C2=O)c2ncccc2c1OC (stereo not given) | 18200 nM
* CCOC(=O)c1cc(-c2ccccc2)[nH]c1N/N=C/c1c(Cl)cccc1Cl | 2020 nM
* O=C1NC(=O)C(c2c[nH]c3ccccc23)=C1c1ccccc1 | > 25000 nM
* CCc1ccc2c(c1)C(=O)c1c-2n(CCCN)c(=O)c2cc([N+](=O)[O-])ccc12 | 2340 nM
* COC1=CC2CCN3Cc4cc5c(cc4C(C1O)C23)OCC5 (stereo not given) | 2970 nM

----------
Measured TGI, listed per entry for reference.
- System: NCI-H460 lung
- Protocol: NCI tumour cell line growth inhibition, 48 h
Where a SMILES comes first, the peptide text is derived from it. [ ]: non-standard residue; d: D form. Hiv = CC(C)[C@H](O)C(=O)O
Metric: TGI

- C=C(C)CC(C)(c1cc2ccccc2n1C)N1CCOCC1 (stereo not given): > 100 µM
- CC/C(=N/N=C(N)N)c1ccc(NC(=O)Nc2ccc(/C(CC)=N/N=C(N)N)cc2)cc1: > 100 µM
- c1ccc2c(c1)N=C(c1ccc3ccccc3c1)CC(c1cccc3ccccc13)S2 (stereo not given): > 100 µM
- CC(=O)NC(CCCNC(=O)OCc1ccccc1)C(=O)O (stereo not given): > 100 µM
- N#C/C(C(=O)Nc1ccc(Cl)cc1)=C(/N)N1CCOCC1: > 100 µM
- Fc1ccc(-c2nn3c(COc4ccc(Cl)cc4Cl)nnc3s2)cc1Oc1ccccc1: > 100 µM
- COc1cc([N+](=O)[O-])ccc1NC(=O)c1cccc([N+](=O)[O-])c1O: > 100 µM
- CCOC(=O)Nc1cc2c(c(N)n1)N=C(c1ccc3ccccc3c1)CN2: 3.33 µM
- Cc1ccc([N+](=O)[O-])cc1S(=O)(=O)Nc1ccc(C2=NOC(c3ccccc3O)C2)cc1 (stereo not given): 25.3 µM
- COC(=O)/C=C1\CCCN1CCc1cc2c(cc1CC#N)OCO2: > 100 µM
- CC(=O)O[C@H]1C(=O)[C@@]2(C)C(C(OC(=O)c3ccccc3)[C@]3(O)CC(OC(=O)C(O)C(NC(=O)c4ccccc4)c4cccc(Cl)c4)C(C)=C1C3(C)C)[C@]1(OC(C)=O)CO[C@@H]1C[C@@H]2O (stereo not given in full): > 10 µM
- O=c1c2n[nH]nc2nc2n1CC(c1ccccc1)S2 (stereo not given): > 100 µM
- Cc1cc2cc3ccccc3cc2c(=O)[nH]1: > 10 µM
- CC(C)[C@@H]1OC(=O)[C@@H](C)NC(=O)[C@@H]2CCCN2C1=O (cyclo([Hiv]-Pro-[dA])): > 100 µM
- CN1CCN(c2ccc(Nc3ncc4cc5n(c4n3)C3(CCCCC3)CNC5=O)nc2)CC1: 10.6 µM
- Cc1cn2c(/C=C3/C(=O)Nc4ccc(Cl)cc43)c(C)nc2s1: > 59.4 µM
- CC(NC(=O)OC(C)(C)C)C(=O)NC(Cc1ccccc1)C(=O)NCC(=O)Oc1c(Cl)c(Cl)c(Cl)c(Cl)c1Cl (stereo not given): 63.3 µM
- COc1ccc2c(c1)C(=O)c1c-2c(N2CCN(C(=O)CCNCCNCCO)CC2)nc2ccccc12: 19.6 µM
- Nc1c(Br)cc(-c2nc3ccccc3s2)cc1Br: > 100 µM
- Cc1[nH]n(-c2cccc(Cl)c2)c(=O)c1/C=C1\C=c2ccccc2=CC1=O: > 100 µM
